Entry source: paper PMC4104761

assay: Liposome leakage assay (ANTS/DPX fluorescence); type: biochemical; conditions: ANTS/DPX leakage, 200 nm liposomes PBPS:EYL 1:1; 25°C; pH 7.4; fluorescence at 510 nm; triplicate; read-out: S0.5, concentration necessary to achieve membrane disruption
pEC50: −log10 of the molar value.

residue codes: YGRKKRRQRRRGKTLRVAKAIYKRYIE [Cypep-1]
pEC50: 5.08
